System: U2OS
Experiment: Multiplex assay against U2OS
Format: toxicity, cell-based
Conditions: human, 12 h, 1 µM, compound concentration 1 uM, replicate 1
# cutoff 30% applies to Population Tubulin-Different-Phenotype (%); >= gives condition met, < gives condition not met

compound=C=CC(=O)Nc1cccc(Sc2nc(Nc3ccc(N4CCN(C)CC4)cc3)ncc2Cl)c1 category_label="condition met"
compound="CN1CCN(Cc2ccc(Nc3ncc(Cl)c(Nc4ccccc4S(=O)(=O)N(C)C)n3)cc2)CC1 [DUBERMATINIB]" category_label="condition not met"
compound=Cc1nc(N2CC[C@H](O)C2)ncc1-c1cc(C(F)(F)F)cc2[nH]ncc12 category_label="condition not met"
compound="C[C@]12CC[C@@H]3c4ccc(O)cc4CC[C@H]3[C@@H]1CC[C@@H]2O [ESTRADIOL]" category_label="condition not met"
compound="Cc1c[nH]c2nccc(Oc3c(F)cc(Nc4cc(Cl)nc(N)n4)cc3F)c12 [BAY-549]" category_label="condition not met"
compound="C[C@]1(O)C[C@@H](c2nc(-c3ccc4ccc(-c5ccccc5)nc4c3)c3c(N)nccn32)C1 [LINSITINIB]" category_label="condition met"
compound=CC(C)Oc1ccccc1C(=O)Nc1ccccc1C(=O)Nc1cccc(S(=O)(=O)C(F)(F)F)c1 category_label="condition met"
compound="CC(C)(C)NC[C@H](O)COc1nsnc1N1CCOCC1 [TIMOLOL]" category_label="condition not met"
compound="CC(C)c1noc(N2CCC(COc3ccc(-c4ccc(S(C)(=O)=O)cc4)nc3)CC2)n1 [GSK-1292263]" category_label="condition not met"
compound="COC(=O)C1=C(C)NC(C)=C(C(=O)OCCCN2CCC(c3ccccc3)(c3ccccc3)CC2)[C@H]1c1cccc([N+](=O)[O-])c1 [NIGULDIPINE]" category_label="condition met"
compound=C=CC(=O)Nc1cccc(Oc2nc(Nc3ccc(N4CCN(C)CC4)cc3OC)ncc2Cl)c1 category_label="condition met"
compound="Cc1cccc(CN2CCN(C(c3ccccc3)c3ccc(Cl)cc3)CC2)c1.Cl.Cl (configuration not stated)" category_label="condition not met"
compound=COc1cc(Nc2nccc(-c3cnn4nc(OC)ccc34)n2)cc(C(F)(F)F)c1 category_label="condition not met"
compound=CCOC(=O)Nc1cc(-c2ccc(C)c(NS(C)(=O)=O)c2)nn2c(C)nnc12 category_label="condition not met"
compound="CNC(=O)Nc1ccc2c(c1)[C@@]1(CC2)OC(=O)N(CC(=O)N(Cc2ccc(F)cc2)[C@@H](C)C(F)(F)F)C1=O [A-486]" category_label="condition met"
compound=Cl.O=C(O)c1cc(-c2ccc(C3CCNCC3)cc2)c2ccc(-c3ccc(C(F)(F)F)cc3)cc2c1 category_label="condition not met"

----------
Test system: HEK-293T
Assay: Incucyte cell viability with HEK293T; note: filed as whole numbers so only -1 and 0 and 1 occur
Format: toxicity, cell-based
Conditions: human, 12 h, 10 µM, compound concentration 10 uM, replicate number 2, timepoint 12 hours
Listed here are compounds together with their documented Growth Rate.
readout.name: Growth Rate

smiles_structure=CC1CCN(CC[C@H]2CCCN2S(=O)(=O)c2cccc(O)c2)CC1.Cl test_target=HEK-293T readout_name="Growth Rate" experimental_value=0
smiles_structure=CCOc1cn(-c2ccc(F)cc2C)nc1C(=O)Nc1ccc(Oc2ccnc3cc(OC)c(OC)cc23)c(F)c1 test_target=HEK-293T readout_name="Growth Rate" experimental_value=0
smiles_structure=Cl.Cl.Cl.c1ccc(N2CCN(Cc3nc4ccccc4[nH]3)CC2)nc1 test_target=HEK-293T readout_name="Growth Rate" experimental_value=0
smiles_structure=CN1CCN(Cc2ccc(Nc3ncc(Cl)c(Nc4ccccc4S(=O)(=O)N(C)C)n3)cc2)CC1 test_target=HEK-293T readout_name="Growth Rate" experimental_value=0
smiles_structure=O=C(O)CC/C=C\C[C@@H]1CO[C@H](c2ccccc2Cl)O[C@@H]1c1ccccc1O test_target=HEK-293T readout_name="Growth Rate" experimental_value=0
smiles_structure=Cc1cnc(-c2cc(Cl)ccc2F)cc1-n1c(=O)n(CC(N)=O)c2ccccc21 test_target=HEK-293T readout_name="Growth Rate" experimental_value=1
smiles_structure=C[C@]1(C(=O)N(CCCC(=O)O)Cc2cccc(Cl)c2)CCN1C(=O)c1csc2ccccc12 test_target=HEK-293T readout_name="Growth Rate" experimental_value=0
smiles_structure=CN(C)C(=O)Cn1cc(-c2nc([C@@](C)(c3ccc(-c4cnc(N)nc4)cc3)C3CC3)no2)cn1 test_target=HEK-293T readout_name="Growth Rate" experimental_value=1

----------
System: HEK-293T
Experiment: Multiplex assay against HEK293T
Format: toxicity, cell-based
Settings: human, 24 h, 10 µM, compound concentration 10 uM, replicate 1
readout.name: Population Normal (%)

compound=O=c1cc(N2CCOCC2)oc2c(-c3cccc4c3sc3ccccc34)cccc12 readout_name="Population Normal (%)" experimental_value=83
compound="COc1cc2ncn(-c3cc(OCc4ccccc4C(F)(F)F)c(C(N)=O)s3)c2cc1OC [GW843682X]" readout_name="Population Normal (%)" experimental_value=84
compound=Cc1ccc(C)c(Oc2ccncc2C(=O)N2CCN(C3CC3)c3ccccc32)c1 readout_name="Population Normal (%)" experimental_value=82
compound="CCc1nn(CCCN2CCN(c3cccc(Cl)c3)CC2)c(=O)n1CCOc1ccccc1.Cl [NEFAZODONE HYDROCHLORIDE]" readout_name="Population Normal (%)" experimental_value=75
compound=CCc1ccc(OCc2ccccc2C(=O)Nc2ccc3nc(C)cc(N)c3c2)cc1.Cl readout_name="Population Normal (%)" experimental_value=77
compound=C=CC(=O)Nc1cccc(Oc2nc(Nc3ccc(N4CCN(C)CC4)cc3OC)ncc2Cl)c1 readout_name="Population Normal (%)" experimental_value=91
compound=CNC(=O)Nc1ccc(-c2nc(N3CC4CCC(C3)O4)c3cnn(C4CCC5(CC4)OCCO5)c3n2)cc1 readout_name="Population Normal (%)" experimental_value=72
compound=COc1cc(Nc2nccc(-c3cnn4nc(OC)ccc34)n2)cc(C(F)(F)F)c1 readout_name="Population Normal (%)" experimental_value=76
compound="COC(=O)C1=C(C)NC(C)=C(C(=O)OCCCN2CCC(c3ccccc3)(c3ccccc3)CC2)[C@H]1c1cccc([N+](=O)[O-])c1 [NIGULDIPINE]" readout_name="Population Normal (%)" experimental_value=87
compound="C=CC(=O)Nc1ccc2[nH]c(=O)n(C3CCN(Cc4ccc(-c5nc6cc[nH]c(=O)c6cc5-c5ccccc5)cc4)CC3)c2c1 [Borussertib]" readout_name="Population Normal (%)" experimental_value=83
compound="CNC(=O)Nc1ccc2c(c1)[C@@]1(CC2)OC(=O)N(CC(=O)N(Cc2ccc(F)cc2)[C@@H](C)C(F)(F)F)C1=O [A-486]" readout_name="Population Normal (%)" experimental_value=90
compound="CN1CCN(Cc2ccc(Nc3ncc(Cl)c(Nc4ccccc4S(=O)(=O)N(C)C)n3)cc2)CC1 [DUBERMATINIB]" readout_name="Population Normal (%)" experimental_value=81
compound=O=c1[nH]c2ccccc2n1C1CCN(Cc2ccc(-c3[nH]c4cc5ncnc5cc4nc3-c3ccccc3)cc2)CC1 readout_name="Population Normal (%)" experimental_value=68
compound=CC(C)OC(=O)N1CCC(Oc2ncnc3c2cnn3-c2ccc(S(C)(=O)=O)cc2F)CC1 readout_name="Population Normal (%)" experimental_value=81
compound=C=CC(=O)Nc1cccc(Sc2nc(Nc3ccc(N4CCN(C)CC4)cc3)ncc2Cl)c1 readout_name="Population Normal (%)" experimental_value=87
compound="COc1ccccc1CN[C@H]1C2CCN(CC2)[C@H]1C(c1ccccc1)c1ccccc1 [CP-96345]" readout_name="Population Normal (%)" experimental_value=88
compound="CC1=C(C(=O)Nc2cc3cn[nH]c3cc2F)C(c2ccc(C(F)(F)F)cc2)CC(=O)N1 (configuration not stated)" readout_name="Population Normal (%)" experimental_value=89
compound="C[C@]12CC[C@@H]3c4ccc(O)cc4CC[C@H]3[C@@H]1CC[C@@H]2O [ESTRADIOL]" readout_name="Population Normal (%)" experimental_value=83
compound=Cc1nc(N2CC[C@H](O)C2)ncc1-c1cc(C(F)(F)F)cc2[nH]ncc12 readout_name="Population Normal (%)" experimental_value=94
compound=CC(C)NC(=O)N1CC[C@H](NC2=Nc3cc(F)ccc3N(CC(F)F)c3ccc(Cl)cc32)C1 readout_name="Population Normal (%)" experimental_value=74
compound="CC(C)CC(=O)Nc1[nH]nc2c1CN(C(=O)C1CCN(C)CC1)C2(C)C [PHA-793887]" readout_name="Population Normal (%)" experimental_value=84
compound="Cc1cccc(CN2CCN(C(c3ccccc3)c3ccc(Cl)cc3)CC2)c1.Cl.Cl (configuration not stated)" readout_name="Population Normal (%)" experimental_value=84
compound="CCCSc1nc(N[C@@H]2C[C@H]2c2ccc(F)c(F)c2)c2nnn([C@@H]3C[C@H](OCCO)[C@@H](O)[C@H]3O)c2n1 [TICAGRELOR]" readout_name="Population Normal (%)" experimental_value=78
compound="Cc1c[nH]c2nccc(Oc3c(F)cc(Nc4cc(Cl)nc(N)n4)cc3F)c12 [BAY-549]" readout_name="Population Normal (%)" experimental_value=90
compound=Cl.O=C(O)c1cc(-c2ccc(C3CCNCC3)cc2)c2ccc(-c3ccc(C(F)(F)F)cc3)cc2c1 readout_name="Population Normal (%)" experimental_value=83
compound=CC(C)Oc1ccccc1C(=O)Nc1ccccc1C(=O)Nc1cccc(S(=O)(=O)C(F)(F)F)c1 readout_name="Population Normal (%)" experimental_value=88
compound="O=C(c1cc2c(cc1F)OC(c1ccc(F)cc1)(c1ccc(Cl)cc1Cl)O2)N1CCOCC1 (configuration not stated)" readout_name="Population Normal (%)" experimental_value=83
compound="Cc1ccccc1C(c1ccccc1C)N1C2CCC1CC(O)(c1ccccc1)C2 (configuration not stated)" readout_name="Population Normal (%)" experimental_value=91
compound="COc1ccc(-c2ccc3ncc4c(c3c2)n(-c2ccc(N3CCNCC3)c(C(F)(F)F)c2)c(=O)n4C)cn1.O=C(O)/C=C\\C(=O)O [BGT-226]" readout_name="Population Normal (%)" experimental_value=64
compound="CC(C)c1noc(N2CCC(COc3ccc(-c4ccc(S(C)(=O)=O)cc4)nc3)CC2)n1 [GSK-1292263]" readout_name="Population Normal (%)" experimental_value=76
compound="Cc1ccc2c(c1)c1c(n2CCc2ccc(C)nc2)CCN(C)C1 [LATREPIRDINE]" readout_name="Population Normal (%)" experimental_value=75
compound="CC(C)(C)NC[C@H](O)COc1nsnc1N1CCOCC1 [TIMOLOL]" readout_name="Population Normal (%)" experimental_value=87
